Protocol summary: recombinant UMI read abundance after kanamycin selection (control-corrected) (log10(CPM+1)); higher = more efficient recombination; extreme values may be limits of the assay; sequences stand for … in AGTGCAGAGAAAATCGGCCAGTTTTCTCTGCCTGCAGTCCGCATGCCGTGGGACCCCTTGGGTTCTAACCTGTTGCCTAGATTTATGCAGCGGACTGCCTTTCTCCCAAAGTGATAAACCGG…AGGTTGGTTTCACT; site = the 11-nt donor;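 further: IS621 bridge recombinase in Escherichia coli cells against a fixed T5 target plasmid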
Property name: recombinant UMI read abundance (log10)

                              residue_string                           property_name  measured_result
 0  ATCCCTACATGGACCGGTTTTCCCGGTAATCCGTATTTGCA (site ATCCCTACTTG)  recombinant UMI read abundance (log10)             1.81
 1  TCAGAGACATGGACCGGTTTTCCCGGTAATCCGTATTTGCT (site TCAGAGACTTG)  recombinant UMI read abundance (log10)            0.868
 2  AGATCAGCATGGACCGGTTTTCCCGGTAATCCGTATTTGCT (site CGATCATCTAG)  recombinant UMI read abundance (log10)                0
 3  CGGGAACCATGGACCGGTTTTCCCGGTAATCCGTATTTGTT (site CGGGAACCTAG)  recombinant UMI read abundance (log10)                0
 4  GGGGCACCATGGACCGGTTTTCCCGGTAATCCGTATTTGCA (site GGGGCTCCTTG)  recombinant UMI read abundance (log10)                0
 5  ACACGAACATGGACCGGTTTTCCCGGTAATCCGTATTTGGC (site ACACGAACTGT)  recombinant UMI read abundance (log10)             1.93
 6  CTTCCTACATGGACCGGTTTTCCCGGTAATCCGTATTTGAG (site CTCCCTACTCT)  recombinant UMI read abundance (log10)           0.0168
 7  CCCGGTCCATGGACCGGTTTTCCCGGTAATCCGTATTTGCC (site CCCGGTCCTAG)  recombinant UMI read abundance (log10)                0
 8  TTTGCGGCATGGACCGGTTTTCCCGGTAATCCGTATTTGGT (site TTTGCGGCTAT)  recombinant UMI read abundance (log10)            0.144
 9  TCCACCGCATGGACCGGTTTTCCCGGTAATCCGTATTTGCC (site TCCACCGCTCG)  recombinant UMI read abundance (log10)           0.0335
10  TGGAATCCATGGACCGGTTTTCCCGGTAATCCGTATTTGTG (site TGGAATCCTCA)  recombinant UMI read abundance (log10)            0.604
11  CGTAATCCATGGACCGGTTTTCCCGGTAATCCGTATTTGAT (site CGTAATCCTAT)  recombinant UMI read abundance (log10)            0.697
12  CATGTGTCATGGACCGGTTTTCCCGGTAATCCGTATTTGAC (site TATGTGTCTGT)  recombinant UMI read abundance (log10)          0.00981
13  ACACATCCATGGACCGGTTTTCCCGGTAATCCGTATTTGAC (site ATACATCCTGT)  recombinant UMI read abundance (log10)                0
14  CCTCGGACATGGACCGGTTTTCCCGGTAATCCGTATTTGGG (site CCTCGGACTCC)  recombinant UMI read abundance (log10)           0.0416
15  CTGGAAACATGGACCGGTTTTCCCGGTAATCCGTATTTGGA (site CTGGAAACTTA)  recombinant UMI read abundance (log10)            0.993
16  GGCAAACCATGGACCGGTTTTCCCGGTAATCCGTATTTGGT (site GCCAAACCTAC)  recombinant UMI read abundance (log10)                0
17  TCATACCCATGGACCGGTTTTCCCGGTAATCCGTATTTGCA (site TCATACACTTG)  recombinant UMI read abundance (log10)                0
18  CGAACGTCATGGACCGGTTTTCCCGGTAATCCGTATTTGCT (site CGATCATCTAG)  recombinant UMI read abundance (log10)                0
19  CGATCTGCATGGACCGGTTTTCCCGGTAATCCGTATTTGCT (site CGATCTGCTAG)  recombinant UMI read abundance (log10)             1.72
20  GATTATACATGGACCGGTTTTCCCGGTAATCCGTATTTGCT (site GATTATCCTAG)  recombinant UMI read abundance (log10)                0
21  AATCTTGCATGGACCGGTTTTCCCGGTAATCCGTATTTGTC (site AATCTTGCTGA)  recombinant UMI read abundance (log10)             1.07
22  ATTCTCTCATGGACCGGTTTTCCCGGTAATCCGTATTTGTA (site TTTCTCTCTTA)  recombinant UMI read abundance (log10)             1.58
23  CGATCGCCATGGACCGGTTTTCCCGGTAATCCGTATTTGTT (site CGATCGCCTAA)  recombinant UMI read abundance (log10)            0.142
24  TTCACGGCATGGACCGGTTTTCCCGGTAATCCGTATTTGTC (site TTCACGGCTGA)  recombinant UMI read abundance (log10)            0.624
25  CGGCTACCATGGACCGGTTTTCCCGGTAATCCGTATTTGCT (site CAGCTACCTAG)  recombinant UMI read abundance (log10)                0
26  AGCATTACATGGACCGGTTTTCCCGGTAATCCGTATTTGAT (site AGCATTACTAT)  recombinant UMI read abundance (log10)             1.01

---

Protocol summary: recombinant UMI read abundance after kanamycin selection (control-corrected) (log10(CPM+1)); higher = more efficient recombination; extreme values may be limits of the assay; sequences stand for … in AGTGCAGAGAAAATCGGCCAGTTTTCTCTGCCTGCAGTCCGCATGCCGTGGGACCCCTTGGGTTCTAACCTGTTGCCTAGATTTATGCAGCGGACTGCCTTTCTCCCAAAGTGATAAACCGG…AGGTTGGTTTCACT; site = the 11-nt donor
Records here are stratified by recombinant UMI read abundance (log10); strata: lower segment: < 0.02; middle segment: ≥ 0.02 and < 1; upper segment: ≥ 1

In [3]: df
Out[3]:
                              residue_string           group
 0  GACAAATCATGGACCGGTTTTCCCGGTAATCCGTATTTGGT (site GACAAACCTAC)   lower segment
 1  CCATATTCATGGACCGGTTTTCCCGGTAATCCGTATTTGAC (site GGGATCGCTAC)   lower segment
 2  TGACGTACATGGACCGGTTTTCCCGGTAATCCGTATTTGTC (site TGACGTACTGA)  middle segment
 3  GGCTTGACATGGACCGGTTTTCCCGGTAATCCGTATTTGCG (site GGCTTGACTCG)  middle segment
 4  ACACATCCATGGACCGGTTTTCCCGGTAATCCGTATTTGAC (site ACATATCCTGT)  middle segment
 5  CGAGAAGCATGGACCGGTTTTCCCGGTAATCCGTATTTGTC (site CGAGAAGCTGA)   upper segment
 6  TCATATACATGGACCGGTTTTCCCGGTAATCCGTATTTGCA (site TCATATACTTG)  middle segment
 7  CAGCTACCATGGACCGGTTTTCCCGGTAATCCGTATTTGCT (site CTGCTACCTAG)   lower segment
 8  GAATGGCCATGGACCGGTTTTCCCGGTAATCCGTATTTGAA (site GAATGGCCTTT)   lower segment
 9  GGTACCTCATGGACCGGTTTTCCCGGTAATCCGTATTTGTT (site GGTACATCTAA)   lower segment
10  AGAGTATCATGGACCGGTTTTCCCGGTAATCCGTATTTGAA (site AGAGTATCTTT)   upper segment
11  TTATCTGCATGGACCGGTTTTCCCGGTAATCCGTATTTGTG (site TTATCTGCTCA)   upper segment
12  GTTGACACATGGACCGGTTTTCCCGGTAATCCGTATTTGAA (site GTTGACACTTT)  middle segment
13  AGTGGCTCATGGACCGGTTTTCCCGGTAATCCGTATTTGAG (site AGTGGCTCTCT)   upper segment
14  CGCTTGGCATGGACCGGTTTTCCCGGTAATCCGTATTTGCT (site CGATTGGCTAG)   lower segment
15  CCCGTTCCATGGACCGGTTTTCCCGGTAATCCGTATTTGCA (site CCCGATCCTTG)   lower segment
16  CACCGCGCATGGACCGGTTTTCCCGGTAATCCGTATTTGTC (site CACCGCGCTGA)   upper segment
17  CAGTAACCATGGACCGGTTTTCCCGGTAATCCGTATTTGAA (site CAGTAACCTTT)  middle segment
18  GGAGTGCCATGGACCGGTTTTCCCGGTAATCCGTATTTGGA (site GGAGTGCCTTC)   lower segment
19  ATATTTGCATGGACCGGTTTTCCCGGTAATCCGTATTTGAC (site ATATTTGCTGT)   upper segment
20  CACTCCTCATGGACCGGTTTTCCCGGTAATCCGTATTTGTC (site CACTCCTCTGG)   upper segment
21  ACTCCAACATGGACCGGTTTTCCCGGTAATCCGTATTTGCT (site ACTCCAACTAG)   upper segment
22  GGACAGACATGGACCGGTTTTCCCGGTAATCCGTATTTGCC (site GGATAGACTGG)   upper segment
23  TAAAGTCCATGGACCGGTTTTCCCGGTAATCCGTATTTGTC (site TAAAGTCCTCA)   lower segment
24  GTGGAAACATGGACCGGTTTTCCCGGTAATCCGTATTTGCA (site ATGGAAACTTG)   upper segment
